# EXPERIMENT NOTES: Toxicity was measured in mouse by intraperitoneal administration
# CONDITION NOTES: in vivo, ip
In this section, each of the compounds is paired with its reported LD50.

{"COMPOUND": "CN1CCC/C1=C1/C(=O)N(c2cccc(Cl)c2)c2ccccc21", "LD50": "> 320 mg/kg"}
{"COMPOUND": "COc1ccc(N2C(=O)/C(=C3/CCCN3C)c3ccccc32)cc1", "LD50": "> 320 mg/kg"}
{"COMPOUND": "NC(=O)CCC/N=C(\\c1ccc(Cl)cc1)c1cc(F)ccc1O [PROGABIDE]", "LD50": "~1000 mg/kg"}
{"COMPOUND": "CCCC(CCC)C(=O)[O-].[Na+] [VALPROATE SODIUM]", "LD50": "> 1000 mg/kg"}

* * *

# EXPERIMENTAL SYSTEM: GABA-A receptor; anion channel (Rattus norvegicus) (UniProt O09028+P15431+P18506+P18508+P19969+P20236+P23574+P23576+P28471+P28473+P30191+P62813+P63079+P63138+Q91ZM7+Q9ES14)
# EXPERIMENT NOTES: Antagonism of mercaptopropionic acid (MPA) induced convulsions in mouse
# Assay type: functional, organism-based

{"SMILES REPRESENTATION": "CN(C)/C=C1\\C(=O)N(c2cccc(Cl)c2)c2ccc(Cl)cc21", "ED50": "> 100 mg/kg"}
{"SMILES REPRESENTATION": "CN(/C=C1\\C(=O)N(c2cccc(Cl)c2)c2ccccc21)Cc1ccccc1", "ED50": "> 100 mg/kg"}
{"SMILES REPRESENTATION": "CSc1ccc(N2C(=O)/C(=C\\N(C)C)c3ccccc32)cc1", "ED50": "56 mg/kg"}
{"SMILES REPRESENTATION": "Oc1c(C2=NCCCCC2)c2ccccc2n1-c1ccccc1", "ED50": "> 100 mg/kg"}
{"SMILES REPRESENTATION": "COc1ccc(N2C(=O)/C(=C\\N(C)C)c3ccccc32)cc1", "ED50": "48.2 mg/kg"}
{"SMILES REPRESENTATION": "O=C1/C(=C2/CCCN2c2ccccc2)c2ccccc2N1c1cccc(Cl)c1", "ED50": "> 100 mg/kg"}
{"SMILES REPRESENTATION": "CN(C)/C=C1\\C(=O)N(c2cc(Cl)ccc2Cl)c2ccccc21", "ED50": "> 100 mg/kg"}
{"SMILES REPRESENTATION": "COc1c(C)cc(N2C(=O)/C(=C\\N(C)C)c3ccccc32)cc1Cl", "ED50": "15.3 mg/kg"}
{"SMILES REPRESENTATION": "Oc1c(C2=NCCCCC2)c2ccccc2n1-c1cccc(Cl)c1", "ED50": "> 100 mg/kg"}
{"SMILES REPRESENTATION": "COc1ccc(N2C(=O)/C(=C\\N(C)C)c3ccccc32)cc1F", "ED50": "6.6 mg/kg"}
{"SMILES REPRESENTATION": "COc1ccc2c(c1)/C(=C/N(C)C)C(=O)N2c1cccc(Cl)c1", "ED50": "> 100 mg/kg"}
